tested on: Amaranthus retroflexus (AMARE); experiment: Herbicidal pre-emergence action, section C (Table C11); type: in vivo; conditions: application rate 320 g/ha; visual grading after ca. 3 weeks
assayReadout: pre-emergence activity against AMARE in % (%)
Answers are plain numbers, in %.

compound	targetOrSystem	numericResult
COC(=O)CCC(=O)N1CSc2cc(C)c(-c3ccccc3F)nc21 [Example I-010]	Amaranthus retroflexus (AMARE)	90

Count: 4. Required value per item: pre-emergence activity against AMARE in %.
1. COCC1(C(=O)N2CSc3cc(C)c(-c4ccccc4F)nc32)CC(Cl)=NO1 (centres unmarked) [Example I-128]
2. Cc1cc2c(nc1-c1ccccc1F)N(C(=O)C1(C)CC(Cl)=NO1)CS2 (centres unmarked) [Example I-083]
3. Cc1cc2c(nc1-c1ccccc1)N(C(=O)C1(C)CC(Cl)=NO1)CS2 (centres unmarked) [Example I-088]
4. COCCOCCOCC(=O)N1CSc2cc(Br)c(-c3cccc(F)c3F)nc21 [Example I-148]

Reply text:
1: 90; 2: 90; 3: 90; 4: 90

====

system: Echinochloa crus-galli (ECHCG); experiment: Herbicidal post-emergence action, section E (Table E5); format: in vivo; conditions: application rate 320 g/ha, visual assessment ca. 3 weeks after spraying
Task for the reader: assign each of the following compounds its reported post-emergence activity against ECHCG in %.
Answers are plain numbers, in %.

Worked cases, answers included:
compound	targetOrSystem	unitsSymbol	numericResult
COC(=O)CCC(=O)N1CSc2cc(Cl)c(-c3ccccc3F)nc21	Echinochloa crus-galli (ECHCG)	%	80
COCC1(C(=O)N2CSc3cc(C)c(-c4ccccc4F)nc32)CC(Cl)=NO1 (centres unmarked)	Echinochloa crus-galli (ECHCG)	%	90
Cc1ccccc1-c1nc2c(cc1C)SCN2C(=O)C1(C)CC(Cl)=NO1 (centres unmarked)	Echinochloa crus-galli (ECHCG)	%	90
Cc1cc2c(nc1-c1ccccc1F)N(S(=O)(=O)Cc1ccc(F)cc1)CS2	Echinochloa crus-galli (ECHCG)	%	90
COC(=O)CCC(=O)N1CSc2cc(C)c(-c3ccccc3F)nc21	Echinochloa crus-galli (ECHCG)	%	90

Please go through the list and note post-emergence activity against ECHCG in % for each compound.
1. CC1(C(=O)N2CSc3cc(Br)c(-c4ccccc4)nc32)CC(Cl)=NO1 (centres unmarked)
2. Cc1cc2c(nc1-c1cccc(C)c1F)NCS2
3. Cc1cc2c(nc1-c1ccccc1F)N(C(=O)C13CCCC1C(Cl)=NO3)CS2 (centres unmarked)

Reply text:
1: 90; 2: 80; 3: 80

====

tested on: Lolium rigidum (LOLRI); experiment: Herbicidal pre-emergence action, section C (Table C5); format: in vivo; settings: application rate 320 g/ha; visual grading after ca. 3 weeks
assayReadout: pre-emergence activity against LOLRI in % (%)
Numbers only, in %.

Example cases with answers are listed next.
compound	unitsSymbol	numericResult
COC(=O)CCC(=O)N1CSc2cc(C)c(-c3ccccc3F)nc21	%	100
Cc1cc2c(nc1-c1ccccc1F)N(S(=O)(=O)Cc1ccc(F)cc1)CS2	%	100
Cc1cc2c(nc1-c1cccc(C)c1F)NCS2	%	90
CC1(C(=O)N2CSc3cc(Br)c(-c4ccccc4)nc32)CC(Cl)=NO1 (centres unmarked)	%	80
Cc1cc2c(nc1-c1ccccc1F)N(C(=O)C13CCCC1C(Cl)=NO3)CS2 (centres unmarked)	%	100
BN1CSc2cc(Br)c(-c3ccccc3C)nc21	%	100
Cc1cc2c(nc1-c1ccccc1F)N(C(=O)C1(C)CC(Cl)=NO1)CS2 (centres unmarked)	%	80

Inquiry: I am curious: what pre-emergence activity against LOLRI in % value has been reported for Cc1ccccc1-c1nc2c(cc1C)SCN2C(=O)C1(C)CC(Cl)=NO1 (centres unmarked) ?
Reply text: 100
